Read-out: Pselectin, SELP (gene 6403)
Test: BSK_4H_Pselectin: BioMAP Diversity Plus: 4H Assay for Pselectin Biomarker Activity (AID 2283026)
Conditions: primary human endothelial cells (HUVEC); actives raise or lower the signal
The source made the active and inactive calls. The calls were made as follows: active = hit-call score of the fitted dose curve at least 0.9, where 1 is the maximum; inactive = score below 0.9.
The reply should be one of these categories: active, inactive

Examples from the recorded data:
| molecule | cat |
| --- | --- |
| CCNc1nc(N)nc(Cl)n1 | inactive |
| CCOC(=O)[C@H](C)Oc1ccc(Oc2nc3ccc(Cl)cc3o2)cc1 | inactive |
| S=C(S)NCCNC(=S)S.[Mn+2].[S-]C([S-])=NCCN=C([S-])[S-].[Zn+2] | inactive |

Assay outcome for C=CCOC(Cn1ccnc1)c1ccc(Cl)cc1Cl (stereo not drawn) : what was it? inactive

Assay outcome for COC(=O)CSc1cc(N=c2sc(=O)n3n2CCCC3)c(F)cc1Cl : what was it? inactive
